TESTED_TARGET: F508delCFTR (Homo sapiens, UniProt P13569, DEL508-508)
Construct: expressed in transfected cells; host or cells: CFBE41o- human lung-derived epithelial cells (CFBE4lo-F508delCFTR-HRP), doxycycline-inducible
Sequence (P13569 with tags, fused parts or gaps DEL508-508): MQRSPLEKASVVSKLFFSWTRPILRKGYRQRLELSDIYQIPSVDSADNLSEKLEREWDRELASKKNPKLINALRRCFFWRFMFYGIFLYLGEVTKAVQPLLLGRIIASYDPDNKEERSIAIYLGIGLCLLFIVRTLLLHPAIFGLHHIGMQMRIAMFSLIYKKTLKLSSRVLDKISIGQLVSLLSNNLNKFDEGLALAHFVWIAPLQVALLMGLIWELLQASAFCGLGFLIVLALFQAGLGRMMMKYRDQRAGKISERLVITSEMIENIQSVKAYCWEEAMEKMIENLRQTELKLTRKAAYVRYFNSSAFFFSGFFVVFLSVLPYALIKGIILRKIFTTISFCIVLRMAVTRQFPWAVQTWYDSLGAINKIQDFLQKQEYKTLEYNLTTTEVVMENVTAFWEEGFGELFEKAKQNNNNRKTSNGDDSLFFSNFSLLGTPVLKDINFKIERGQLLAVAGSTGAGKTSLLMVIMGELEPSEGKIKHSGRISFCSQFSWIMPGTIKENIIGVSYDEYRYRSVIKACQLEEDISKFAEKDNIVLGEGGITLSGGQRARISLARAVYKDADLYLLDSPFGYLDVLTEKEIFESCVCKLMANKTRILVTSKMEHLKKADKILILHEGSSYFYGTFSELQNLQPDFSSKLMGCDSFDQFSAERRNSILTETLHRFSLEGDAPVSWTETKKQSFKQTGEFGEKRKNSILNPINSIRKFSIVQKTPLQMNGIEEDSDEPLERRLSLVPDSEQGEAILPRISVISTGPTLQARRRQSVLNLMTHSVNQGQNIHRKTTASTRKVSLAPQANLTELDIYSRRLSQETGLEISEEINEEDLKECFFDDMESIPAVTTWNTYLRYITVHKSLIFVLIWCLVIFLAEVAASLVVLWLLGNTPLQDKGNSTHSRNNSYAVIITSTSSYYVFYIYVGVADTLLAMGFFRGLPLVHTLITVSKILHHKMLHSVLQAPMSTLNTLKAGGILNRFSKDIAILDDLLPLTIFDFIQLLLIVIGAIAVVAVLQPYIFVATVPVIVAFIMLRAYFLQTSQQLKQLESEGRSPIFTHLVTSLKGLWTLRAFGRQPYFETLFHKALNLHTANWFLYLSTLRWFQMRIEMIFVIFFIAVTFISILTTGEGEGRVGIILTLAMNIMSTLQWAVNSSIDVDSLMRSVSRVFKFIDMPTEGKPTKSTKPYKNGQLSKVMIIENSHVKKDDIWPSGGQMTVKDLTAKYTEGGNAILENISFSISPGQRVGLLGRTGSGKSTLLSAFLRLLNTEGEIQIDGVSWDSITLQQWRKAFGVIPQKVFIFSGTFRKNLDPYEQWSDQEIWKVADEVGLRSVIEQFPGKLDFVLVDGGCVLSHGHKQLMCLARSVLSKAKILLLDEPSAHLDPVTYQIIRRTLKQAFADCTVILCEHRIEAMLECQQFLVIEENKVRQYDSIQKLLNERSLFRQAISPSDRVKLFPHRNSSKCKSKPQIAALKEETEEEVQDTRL
ASSAY_NOTES: Cell Surface Expression-Horse Radish Peroxidase (CSE-HRP) Assay;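 as to Maximum % activity (without co-corrector): percent of the 2 µM on-plate positive control corrector response above DMSO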
Assay type: cell-based
CONDITION_INFO: CSE-HRP; without co-corrector; maximum at any tested concentration, normalized to on-plate positive control; read-out: Maximum % activity (without co-corrector)
ENDPOINT_NAME: Emax

Record request: Emax value, item COc1cc(C(F)(F)F)ccc1CN[C@H]1[C@H](C(C)(C)C)[C@@H](C(=O)O)N(C(=O)OC(C)C)[C@H]1c1ccccc1OC
> 200%

Proceed to COc1cc(F)c(F)cc1CN[C@H]1[C@H](C(C)(C)C)[C@@H](C(=O)O)N(C(=O)C2CCCCC2)[C@H]1c1ccccc1
100 to 200%

Proceed to COc1ccc(-c2cccnc2)cc1CN[C@H]1[C@H](C(C)(C)C)[C@@H](C(=O)O)N(C(=O)C2CCCCC2)[C@H]1c1ccccc1
< 100%

Proceed to COc1ccc(-c2cnccc2C)cc1CN[C@H]1[C@H](C(C)(C)C)[C@@H](C(=O)O)N(C(=O)C2CCCCC2)[C@H]1c1ccccc1
< 100%

Proceed to COc1ccc(C(F)(F)F)cc1CN[C@@H]1[C@@H](C(C)(C)C)[C@H](C(=O)O)N(C(=O)[C@@H](C)Oc2ccccc2)[C@@H]1c1ccccc1 (racemic)
< 100%

Proceed to COc1ncc(C2CCC2)cc1CN[C@H]1[C@H](C(C)(C)C)[C@@H](C(=O)O)N(C(=O)C2CCC2)[C@H]1c1ccccc1C(F)(F)F
< 100%

====

TESTED_TARGET: F508delCFTR (Homo sapiens, UniProt P13569, DEL508-508)
Construct: expressed in transfected cells; host or cells: CFBE41o- human lung-derived epithelial cells (CFBE4lo-F508delCFTR-HRP), doxycycline-inducible
ASSAY_NOTES: Cell Surface Expression-Horse Radish Peroxidase (CSE-HRP) Assay
Format: cell-based
CONDITION_INFO: with co-corrector (2 μM of 3-[(2R,4R)-4-({[1-(2,2-difluoro-1,3-benzodioxol-5-yl)cyclopropyl]carbonyl}amino)-7-methoxy-3,4-dihydro-2H-chromen-2-yl]benzoic acid); read-out: EC50 (with co-corrector)
Quick list: EC50 per entry.

Sample records with EC50:
COMPOUND	ENDPOINT_NAME	VALUE
CC(C)(C)[C@H]1[C@H](Nc2ncccc2OCc2ccccc2)[C@H](c2ccccc2)N(C(=O)C2CCCCC2)[C@@H]1C(=O)O [III-160]	EC50	1 to 10 µM
COc1nc(C(C)(C)C)ccc1CN[C@H]1[C@H](C(C)(C)C)[C@@H](C(=O)O)N(C(=O)OC(C)C)[C@H]1c1cccnc1OC [Example I-234]	EC50	< 1 µM
COc1ccc(C(F)(F)F)cc1CN[C@H]1[C@H](C(C)(C)OC)[C@@H](C(=O)O)N(C(=O)C2CCCCC2)[C@H]1c1cccnc1OC [II-436]	EC50	1 to 10 µM
CC(C)(C)[C@H]1[C@H](NCc2ccc(C(F)(F)F)cc2F)[C@H](c2ccccc2)N(C(=O)C2CCCCC2)[C@@H]1C(=O)O [III-136]	EC50	1 to 10 µM
COc1ccc(C(F)(F)F)cc1CN[C@@H]1[C@@H](C(C)(C)C)[C@H](C(=O)O)N(C(=O)C(OC)c2ccccc2)[C@@H]1c1cccnc1N(C)C (relative stereo) [III-88]	EC50	1 to 10 µM
COc1ncc(C2CCC2)cc1CN[C@H]1[C@H](C(C)(C)C)[C@@H](C(=O)O)N(C(=O)[C@@H]2CCCCO2)[C@H]1c1ccccc1C [II-585]	EC50	< 1 µM

Record request: EC50 value, item COc1nc(C(C)(C)C)ccc1CN[C@H]1[C@H](C(C)(C)C)[C@@H](C(=O)O)N(C(=O)[C@H](C)c2ccccc2)[C@H]1c1ccccc1 [Example I-182]
1 to 10 µM

Proceed to COc1cc(C(F)(F)F)ccc1CN[C@H]1[C@H](C23CC(C2)C3)[C@@H](C(=O)O)N(C(=O)C2CCCCC2)[C@H]1c1ccccc1 [II-470]
< 1 µM

Proceed to COc1ncc(-c2ccccc2)cc1CN[C@H]1[C@H](C(C)(C)C)[C@@H](C(=O)O)N(C(=O)C2CCCCC2)[C@H]1c1ccccc1 [Example 25]
< 1 µM

Proceed to COC(=O)N1CCC[C@@H](C(=O)N2[C@H](c3ccccc3)[C@H](Nc3cc(C(F)(F)F)cc(C)n3)[C@@H](C(C)(C)C)[C@@H]2C(=O)O)C1 (racemic) [Example I-27]
1 to 10 µM

Proceed to COc1ncc(C(F)(F)F)cc1CN[C@H]1[C@H](C(C)(C)C)[C@@H](C(=O)O)N(C(=O)C2CCCCC2)[C@H]1c1ccccc1C(C)C [II-545]
1 to 10 µM

Proceed to COc1ccc(C(F)(F)F)cc1CN[C@H]1[C@H](C(C)(C)C)[C@@H](C(=O)O)N(C(=O)[C@@H]2CCCO2)[C@H]1c1ccccc1C(C)C [II-595]
< 1 µM

====

TESTED_TARGET: F508delCFTR (Homo sapiens, UniProt P13569, DEL508-508)
Construct: expressed in transfected cells; host or cells: CFBE41o- human lung-derived epithelial cells (CFBE4lo-F508delCFTR-HRP), doxycycline-inducible
ASSAY_NOTES: Cell Surface Expression-Horse Radish Peroxidase (CSE-HRP) Assay;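 as to Maximum % activity (without co-corrector): percent of the 2 µM on-plate positive control corrector response above DMSO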
Assay type: cell-based
CONDITION_INFO: without co-corrector; maximum at any tested concentration, normalized to on-plate positive control; read-out: Maximum % activity (without co-corrector)
Quick list: Emax per entry.

MOLECULE	Emax
COc1ccc2ccccc2c1CN[C@H]1[C@H](C(C)(C)C)[C@@H](C(=O)O)N(C(=O)C2CCCCC2)[C@H]1c1ccccc1 [Example I-188]	< 100%

Record request: Emax value, item COc1ccc(C(C)(C)C)cc1CN[C@H]1[C@H](C(C)(C)C)[C@@H](C(=O)O)N(C(=O)[C@H]2CCCC(F)(F)C2)[C@H]1c1ccccc1 [Example 30]
> 200%

Proceed to COc1ccc(C(C)(C)C)cc1CN[C@H]1[C@H](C(C)(C)C)[C@@H](C(=O)O)N(C(=O)C2CCCCC2)[C@H]1c1ccc(F)cc1 [Example I-112]
> 200%

Proceed to COc1ccc(C(C)(C)C)cc1CN[C@H]1[C@H](C(C)(C)C)[C@@H](C(=O)O)N(C(=O)C2CCCS(=O)(=O)C2)[C@H]1c1ccccc1 (some centres unmarked) [Example I-66]
> 200%

Proceed to COc1cc(C(C)(C)C)ccc1CN[C@H]1[C@H](C(C)(C)OC)[C@@H](C(=O)O)N(C(=O)C2CCCCC2)[C@H]1c1ccccc1 [Example I-62]
100 to 200%

Proceed to COc1ncc(Cc2ccccc2)cc1CN[C@H]1[C@H](C(C)(C)C)[C@@H](C(=O)O)N(C(=O)C2CCCCC2)[C@H]1c1ccccc1 [Example I-69]
100 to 200%

Proceed to COc1ccc(C(F)(F)F)cc1CN[C@@H]1[C@@H](C(C)(C)C)[C@H](C(=O)O)N(C(=O)C2CCCCC2)[C@@H]1c1ccccc1N(C)C (racemic) [Example I-22]
> 200%

Proceed to COc1ccc(C(F)(F)F)cc1CN[C@H]1[C@H](C(C)(C)C)[C@@H](C(=O)O)N(C(=O)CC2CCCCO2)[C@H]1c1ccccc1 (some centres unmarked) [Example I-84]
100 to 200%

Proceed to COc1ccc(C(C)(C)C)cc1CN[C@H]1[C@H](C(C)(C)C)[C@@H](C(=O)O)N(C(=O)C2CCCS2(=O)=O)[C@H]1c1ccccc1 (some centres unmarked) [Example I-192]
100 to 200%

Proceed to COc1ccc(C(C)(C)C)cc1CN[C@H]1[C@H](C(C)(C)C)[C@@H](C(=O)O)N(C(=O)[C@@H]2CCCO2)[C@H]1c1ccccc1 [Example 34]
> 200%

Proceed to COc1ncc(C(C)c2ccccc2)cc1CN[C@H]1[C@H](C(C)(C)C)[C@@H](C(=O)O)N(C(=O)C2CCCCC2)[C@H]1c1ccccc1 (some centres unmarked) [Example I-75]
100 to 200%

====

TESTED_TARGET: F508delCFTR (Homo sapiens, UniProt P13569, DEL508-508)
Construct: expressed in transfected cells; host or cells: CFBE41o- human lung-derived epithelial cells (CFBE4lo-F508delCFTR-HRP), doxycycline-inducible
ASSAY_NOTES: Cell Surface Expression-Horse Radish Peroxidase (CSE-HRP) Assay
Format: cell-based
CONDITION_INFO: test compound without co-corrector; read-out: EC50 (without co-corrector)
pEC50: −log10 of the molar value.
ENDPOINT_NAME: pEC50

Sample records with pEC50:
COMPOUND	pEC50
COc1ccc(C(C)(C)C)cc1CN[C@H]1[C@H](C(C)(C)C)[C@@H](C(=O)O)N(C(=O)C2COc3c(cccc3OC)C2)[C@H]1c1ccccc1 (stereo partly drawn)	5.00 to 6.00
COc1ccc(C(C)(C)C)cc1CN[C@H]1[C@H](C(C)(C)C)[C@@H](C(=O)O)N(C(=O)C2CCCC(C(F)(F)F)C2)[C@H]1c1cccnc1N(C)C (stereo partly drawn)	5.00 to 6.00
COc1cc(C(F)(F)F)ccc1CN[C@@H]1[C@@H](C(C)(C)C)[C@H](C(=O)O)N(C(=O)C2CCCCC2)[C@@H]1c1ccccc1OC [III-95]	< 5.00
CC(C)(C)[C@H]1[C@H](Nc2cccc(C(F)(F)F)c2)[C@H](c2ccccc2)N(C(=O)C2CCCCC2)[C@@H]1C(=O)O	> 6.00
COc1ccc(C(F)(F)F)cc1CN[C@H]1[C@H](C(C)(C)C)[C@@H](C(=O)O)N(C(=O)C2OC[C@@H]3CCC[C@H]23)[C@H]1c1ccccc1 (relative stereo)	5.00 to 6.00

Record request: pEC50 value, item COc1ccc(C(C)(C)C)cc1CN[C@H]1[C@H](C(C)(C)C)[C@@H](C(=O)O)N(C(=O)c2ccc(OC3CCCCC3)cc2)[C@H]1c1cccnc1N(C)C
5.00 to 6.00
